Hello, the source for this data is ChEMBL document CHEMBL1131215, in case you need it.

test system: Streptococcus pyogenes; test: In vitro antibacterial activity against PIU 2548 strain of Streptococcus pyogenes; assay type: functional; details: Streptococcus pyogenes
READOUT: MIC (µg/mL)

I. CC[C@H]1OC(=O)/C(C)=C/[C@H](C)[C@@H](O[C@@H]2O[C@H](C)C[C@H](N(C)C)[C@H]2O)[C@@](C)(OC)C[C@@H](C)C(=O)[C@H](C)[C@H]2N(CCc3ccc(C)cc3)C(=O)O[C@]12C
II. CC[C@H]1OC(=O)/C(C)=C/[C@H](C)[C@@H](O[C@@H]2O[C@H](C)C[C@H](N(C)C)[C@H]2O)[C@@](C)(OC)C[C@@H](C)C(=O)[C@H](C)[C@H]2N(CCc3ccc(N)cc3)C(=O)O[C@]12C
Exam item: // select label with min value of measured MIC from [ I , II ] Let me know the label of the one you choose.
Marked response: II
(II: 0.2 µg/mL, I: 0.39 µg/mL)
